The reported numbers originate from PubChem BioAssay (NCI).

growth for assorted compounds
Tested on: T-47D breast
Protocol text: NCI-60 one-dose screen, 48 h (100 = growth as untreated, 0 = no growth, -100 = all killed)
Test settings: 10 µM unless noted
Compounds without any hit were thinned out: in the full panel of roughly 83,000, 20% have a hit. Calls of active or inactive are those of the source. How the source made its calls: active means growth percent below 10; inactive means the rest.

| Compound | growth |
| --- | --- |
| Cc1ccc(C(C)C)cc1NC(=O)Nc1ccc([N+](=O)[O-])cc1 | 0.428% (active) |
| Cc1cc(C)c2c(c1)N1OC(C2)C[C@H]1/C=C/c1ccccc1 (stereo not given in full) | 93.6% (inactive) |
| COC(=O)CCC1=C(C)C(C)=N/C1=C\c1[nH]c(-c2ccc[nH]2)cc1OC | 7.35% (active) |
| COc1ccc(C2CC(c3cccc(Nc4ccnc5cc(Cl)ccc45)c3)=NN2C=O)cc1 (stereo not given) | 43.5% (inactive) |
| CCN(CC)c1ccc(N=Nc2cc(Cl)ccc2Cl)c(NC(=O)CCC(=O)O)c1 | 90.2% (inactive) |
| CCCCOc1ccc(C(C)(C)c2ccc(OCCCC)cc2)cc1 | 90.2% (inactive) |
| CO[C@H]1/C=C/O[C@@]2(C)Oc3c(C)c(O)c4c(O)c(c(/C=N/N5CCN(C)CC5)c(O)c4c3C2=O)NC(=O)/C(C)=C\C=C\C(C)[C@H](O)[C@@H](C)[C@@H](O)[C@@H](C)[C@@H](OC(C)=O)[C@@H]1C (stereo not given in full) | 107% (inactive) |
| O=C(Nc1nc2ccccc2s1)c1cc(-c2ccc(F)cc2)n2nc(-c3ccccc3)cc2n1 | 45.4% (inactive) |
| N#Cc1c(N2CCOCC2)nc2sc3cc(Cl)ccc3n2c1=N | 33.1% (inactive) |
| Nc1nc2ncc(CCNc3ccc(C(=O)NC(CCC(=O)O)C(=O)O)cc3)nc2c(=O)[nH]1 (stereo not given) | 115% (inactive) |
| CC12CCCCC1C(C(N)=O)C(=O)O2 (stereo not given) | 114% (inactive) |
| O=C1Cc2cc(CCN3CCN(CCOCCO)CC3)c(Cl)cc2N1Cc1ccc(-c2ccccc2-c2nn[nH]n2)cc1 | 101% (inactive) |
| Cc1ccc(NC(=O)CSc2nnc3n(Cc4ccccc4)c(=O)c4c(C)c(C(N)=O)sc4n23)cc1 | -19.7% (active) |
| O=C(/C=C/c1cccnc1)/C=C/c1cccnc1 | -2.05% (active) |
| COc1ccc(/C=C2\COc3ccc(O)c(O)c3C2=O)cc1OC | -5.4% (active) |
| O=C(Nc1ccc(Oc2ccc(NC(=O)Nc3ccc([N+](=O)[O-])cc3)cc2)cc1)Nc1ccc([N+](=O)[O-])cc1 | 1.54% (active) |
| CC12CCC3C(CCC4CC(=O)/C(=C\O)CC43C)C1CCC(=O)O2 (stereo not given) | 117% (inactive) |
| CC(=O)Oc1ccc(C2OC(c3ccc4ccccc4c3OC(C)=O)=NN2C(C)=O)c(OC(C)=O)c1 (stereo not given) | 25% (inactive) |
| O=C(C(Br)Br)C(Br)C(Br)c1ccccc1 (stereo not given) | 49.7% (inactive) |
| CCN1CCN(c2cc(-c3cn[nH]c3-c3cc(C)cc(OC)c3)nc(-c3cccnc3)n2)CC1 | 83.1% (inactive) |

###

Test system: OVCAR-4 ovarian
Protocol text: NCI-60 one-dose screen, 48 h (100 = growth as untreated, 0 = no growth, -100 = all killed)
Test settings: 10 µM unless noted
The panel holds about 83,000 compounds, 20% with a hit somewhere; the sample as a whole holds those more often.
growth for assorted molecules

| Molecule | Output unit | growth |
| --- | --- | --- |
| CC12CCCCC1C(C(N)=O)C(=O)O2 (stereo not drawn) | % | 101 |
| O=C(/C(=C/c1cccc([N+](=O)[O-])c1)c1ccccc1)c1ccccc1 | % | 42.9 |
| O=C(CN1CCCCC1)Sc1nnc2sc3ccccc3n12 | % | 105 |
| COc1ccc2nccc(/C=C/c3ccnc4ccc(OC)cc34)c2c1 | % | 104 |
| N=c1ccn2c(n1)O[C@@H]1[C@@H](O)[C@H](CO)O[C@@H]12 | % | 76.7 |
| CN1COc2ccc3ccccc3c2C1 | % | 91.7 |
| Oc1ccccc1C=Nc1ccccc1N=Cc1ccccc1O.[Cu+2] | % | 35.5 |
| CCN(CC)CCOc1ccc(C2=C(c3ccccc3)CCc3cc(OC)ccc32)cc1 | % | 52.3 |
| CN(C)c1ccc(/C=C(\C#N)c2nc3ccccc3c(=O)[nH]2)cc1 | % | 29.9 |
| Clc1ccc(CCC(Cn2ccnc2)Sc2c(Cl)cccc2Cl)cc1 (stereo not drawn) | % | 60.4 |
| CCC(=O)Nc1ccccc1C#C/C=C\C#Cc1ccccc1C(F)(F)F | % | 85.8 |
| Clc1ccc([C@@H]2C[C@@H]3Cc4cc(Br)c5ccccc5c4N2O3)c(Cl)c1 | % | 84.7 |
| CN(CC(=O)N(Cc1ccc(C2CCCCC2)cc1)c1ccc(C(=O)O)cc1)S(=O)(=O)c1c(F)c(F)c(F)c(F)c1F | % | 83.8 |
| NCCCc1nnc(CCC(=O)c2nc3ccccc3[nH]2)o1 | % | 104 |
| Cc1nc(N)[nH]c(=O)c1C | % | 111 |
| Cc1ccc(C(C)C)cc1NC(=O)Nc1ccc([N+](=O)[O-])cc1 | % | 28.2 |
| O=C1NCN(CCO)CN1 | % | 98.5 |
| COc1ccc(-c2cnnn2-c2cc(OC)c3c(c2)OCO3)cc1 | % | 64.7 |
| CNc1ccc(CSc2ccc(Cl)cc2)cc1 | % | 85.6 |
| COc1ccc(-c2noc(N)c2-c2cc(OC)c3c(c2)OCO3)cc1 | % | 91.7 |
| Cc1scc2c1N(C(=O)CN1CCN(C)CC1)c1ccccc1NC2=O | % | 101 |
| COc1cc(/C=C/C(=O)c2ccc(F)cc2)ccc1OCCCCCOc1cc2c(cc1OC)C(=O)N1CCCC1C=N2 (stereo not drawn) | % | -37.5 |
| CCc1ccc(CCN2C(=O)c3ccccc3C2=O)nc1 | % | 101 |

###

Test system: SN12C renal
Protocol text: NCI-60 one-dose screen, 48 h (100 = growth as untreated, 0 = no growth, -100 = all killed)
Test settings: 10 µM unless noted
This is part of a sample that, as a whole, favours compounds with a hit. Of some 83,000 tested, about 20% had one in any assay.
growth: recorded values

| Molecule | growth / % |
| --- | --- |
| COc1ccc2c3c(c(OCCCN(C)C)nc2c1)-c1ccc(Cl)cc1C3=O | 32.6 |
| COC(=O)c1ccc2c(c1)nc(-c1ccc(O)c(OC)c1)n2-c1cc(C(C)(C)C)[nH]n1 | 97.7 |
| CC(=O)O[C@H]1C(=O)[C@@]2(C)C([C@H](OC(=O)c3ccccc3)[C@]3(O)C[C@H](OC(=O)[C@H](O)[C@@H](NC(=O)c4ccccc4)c4ccccc4)C(C)=C1C3(C)C)[C@]1(OC(C)=O)CO[C@@H]1C[C@@H]2O (some centres undefined) | 38.1 |
| S=C(c1ccccc1)N1CCN(c2cccc(Cl)c2)CC1 | 100 |
| COc1ccc(-c2nn(-c3ccccc3)cc2/C=C2\SC(=S)N(CCc3ccc(O)cc3)C2=O)cc1 | 81.9 |
| OC(Cc1cccnc1)c1ccccc1 (centres undefined) | 99.3 |
| O=C1NCN(CCO)CN1 | 96.5 |
| COc1ccc(C2CC(c3ccc(OC)c(OC)c3)=NN2C(=O)c2cc(OC)c(OC)c(OC)c2)c(OC)c1 (centres undefined) | 91.3 |
| COc1ccc(C2CC(c3cccc(Nc4ccnc5cc(Cl)ccc45)c3)=NN2C=O)cc1 (centres undefined) | 37.9 |

###

Test system: K-562 leukemia
Protocol text: NCI-60 one-dose screen, 48 h (100 = growth as untreated, 0 = no growth, -100 = all killed)
Test settings: 10 µM unless noted
Compounds without any hit were thinned out: in the full panel of roughly 83,000, 20% have a hit. Activity calls are given as the source filed them. The calls were made as follows: active = growth percent below 10; inactive = the rest.

| Compound | growth |
| --- | --- |
| O=C1C[C@@H]2/C(=C(O)\C=C\c3ccccc3)C(=O)C=C[C@@H]2O1 | 14.3% (inactive) |
| COc1ccc2[nH]cc(/C=C3/C(=O)Nc4ccc(F)cc43)c2c1 | 72.1% (inactive) |
| O=C(NCCc1ccccc1)C1CCC(=O)N1Cc1ccc(Br)cc1 (stereo unspecified) | 107% (inactive) |
| COc1ccc(OC)c2c1[nH]c(=O)c1c3ccccc3cn21 | 11.2% (inactive) |
| COc1ccc(/C=N\Nc2ccc([N+](=O)[O-])cn2)cc1OC | 93.7% (inactive) |
| CCOc1nc(-c2ccccc2)cc2c(O)c(C(=O)n3nc(C)cc3C)[nH]c(=O)c12 | 86.7% (inactive) |
| Cc1ccc2c(c1)C(=O)/C(=C/c1ncc([N+](=O)[O-])n1C)O2 | 0.705% (active) |
| NCCCc1nnc(CCC(=O)c2nc3ccccc3[nH]2)o1 | 98.5% (inactive) |
| CCCCCCCCCCCCNc1ncnc2[nH]ncc12 | 48.7% (inactive) |
| CCOC(=O)/C(=C/c1ccccc1)C(=O)c1ccccc1 | 38.9% (inactive) |
| CCOC(=O)c1c(NC(=O)C2CCCCC2C(=O)O)sc2c1CCCC2 (stereo unspecified) | 102% (inactive) |
